Parameter pIC50: see the listing below.
Biological target: PI3Kα H1047R (T47D cells) (Homo sapiens, UniProt P42336, H1047R)
Construct: endogenous in cells; host or cells: T47D cells
Sequence (P42336 whole entry H1047R): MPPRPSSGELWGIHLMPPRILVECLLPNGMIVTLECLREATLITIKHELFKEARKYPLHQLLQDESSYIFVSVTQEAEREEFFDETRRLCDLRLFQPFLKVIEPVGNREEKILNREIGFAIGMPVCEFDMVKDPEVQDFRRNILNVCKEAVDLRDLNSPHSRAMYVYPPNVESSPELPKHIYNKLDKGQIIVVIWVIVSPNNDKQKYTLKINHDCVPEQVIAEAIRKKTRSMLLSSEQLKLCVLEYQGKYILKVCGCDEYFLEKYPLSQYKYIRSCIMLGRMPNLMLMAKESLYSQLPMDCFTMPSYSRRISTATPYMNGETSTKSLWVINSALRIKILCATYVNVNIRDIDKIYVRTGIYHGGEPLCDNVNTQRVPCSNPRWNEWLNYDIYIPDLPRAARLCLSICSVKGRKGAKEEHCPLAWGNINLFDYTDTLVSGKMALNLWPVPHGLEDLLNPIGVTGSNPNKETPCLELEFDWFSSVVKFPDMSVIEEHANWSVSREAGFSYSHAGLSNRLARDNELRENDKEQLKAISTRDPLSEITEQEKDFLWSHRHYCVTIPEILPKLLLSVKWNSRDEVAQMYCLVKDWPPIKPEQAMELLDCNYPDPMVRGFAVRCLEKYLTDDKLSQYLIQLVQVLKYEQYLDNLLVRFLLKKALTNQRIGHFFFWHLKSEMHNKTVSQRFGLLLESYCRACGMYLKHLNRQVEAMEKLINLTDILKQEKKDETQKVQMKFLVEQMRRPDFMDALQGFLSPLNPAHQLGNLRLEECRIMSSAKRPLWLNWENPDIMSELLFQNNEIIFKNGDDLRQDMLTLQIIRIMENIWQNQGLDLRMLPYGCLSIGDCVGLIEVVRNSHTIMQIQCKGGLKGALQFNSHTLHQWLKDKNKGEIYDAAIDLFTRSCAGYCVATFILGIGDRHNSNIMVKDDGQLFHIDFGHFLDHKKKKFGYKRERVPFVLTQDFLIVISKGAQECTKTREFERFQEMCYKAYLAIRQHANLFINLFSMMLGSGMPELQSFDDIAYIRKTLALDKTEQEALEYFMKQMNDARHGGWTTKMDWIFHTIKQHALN
Sequence (P27986 whole entry partner): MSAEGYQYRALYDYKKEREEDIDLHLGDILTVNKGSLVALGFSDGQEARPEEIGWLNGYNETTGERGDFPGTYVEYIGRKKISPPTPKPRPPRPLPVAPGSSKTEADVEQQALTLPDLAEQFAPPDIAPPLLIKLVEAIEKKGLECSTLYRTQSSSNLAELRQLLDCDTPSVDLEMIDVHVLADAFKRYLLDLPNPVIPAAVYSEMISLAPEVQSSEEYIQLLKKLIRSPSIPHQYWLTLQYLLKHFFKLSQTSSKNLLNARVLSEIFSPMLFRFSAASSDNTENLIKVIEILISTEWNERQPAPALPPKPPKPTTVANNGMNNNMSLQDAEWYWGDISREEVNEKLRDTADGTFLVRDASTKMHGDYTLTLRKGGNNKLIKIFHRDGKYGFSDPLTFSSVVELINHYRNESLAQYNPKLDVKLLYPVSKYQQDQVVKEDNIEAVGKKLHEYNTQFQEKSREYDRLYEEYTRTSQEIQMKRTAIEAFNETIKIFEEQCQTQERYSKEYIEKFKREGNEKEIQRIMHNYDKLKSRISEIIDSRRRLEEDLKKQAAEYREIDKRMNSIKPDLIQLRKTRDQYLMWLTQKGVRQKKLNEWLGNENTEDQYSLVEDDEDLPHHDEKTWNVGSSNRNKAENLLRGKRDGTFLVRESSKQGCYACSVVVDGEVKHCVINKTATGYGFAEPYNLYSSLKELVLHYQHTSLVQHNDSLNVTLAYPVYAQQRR
Assay: PI3Kα cellular assay: pAKT HTRF in T47D cells after EGF stimulation
Format: cell-based
Conditions: T47D cells (PI3Kα H1047R), pAKT S473 HTRF, EGF stimulation
pIC50: −log10 of the molar value.

Illustrative cases are given below, each with its answer.
MOLECULE	pIC50
Cc1cc(C(C)Nc2ccccc2C(=O)O)c2nc(-c3ccc(F)cc3)c(C#N)c(=O)n2c1 (stereo not shown)	> 7.00
Cc1cc([C@H](C)Nc2ccccc2C(=O)O)c2nc(-n3cnc4cc(O)ccc43)cc(=O)n2c1	< 5.70
Cc1cc([C@@H](C)Nc2ccccc2C(=O)O)c2nc(-c3ccnc(C4CC4)c3)c(C)c(=O)n2c1 (single isomer, unassigned)	> 7.00
Cc1cc(C(C)Nc2ccccc2C(=O)O)c2nc(-c3ccc4c(c3)c(=O)[nH]n4C)cc(=O)n2c1 (stereo not shown)	< 5.70
Cc1cc(C(C)Nc2ccccc2C(=O)C(F)(F)F)c2nc(N3Cc4ccccc4C3)c(C)c(=O)n2c1 (stereo not shown)	< 5.70

For the molecule shown here, Cc1cc(C(C)Nc2cccc3onc(O)c23)c2nc(-c3cccc(F)c3)c(C)c(=O)n2c1 (stereo not shown) , give the reported pIC50.
< 5.70

For the molecule shown here, Cc1cc([C@@H](C)Nc2ccccc2)c2nc(N(C)Cc3ccccc3)c(C)c(=O)n2c1 , give the reported pIC50.
6.30 to 7.00

---

Biological target: PI3Kα H1047R (T47D cells) (Homo sapiens, UniProt P42336, H1047R)
Construct: endogenous in cells; host or cells: T47D cells
Assay: PI3Kα cellular assay: pAKT HTRF in T47D cells after EGF stimulation
Format: cell-based
Conditions: selectivity T47D (H1047R) over SKBR3 (WT), pAKT HTRF
PROPERTY: T47D pAKT S473 HTRF IC50 (H1047R): T47D (H1047R) selectivity over SKBR3 (WT)

Illustrative cases are given below, each with its answer.
COMPOUND	ASSAYED SYSTEM	OBSERVED
CNC(=O)c1ccc(-c2cc(=O)n3cc(C)cc(C(C)Nc4ccccc4C(=O)O)c3n2)c(C)c1 (centres unmarked) [Compound 356]	PI3Kα H1047R (T47D cells) (Homo sapiens, UniProt P42336, H1047R)	C (C denotes ≤5-fold)
Cc1cc([C@H](C)Nc2ccccc2S(C)(=O)=O)c2nc(N3CCOCC3)cc(=O)n2c1 [Compound 160]	PI3Kα H1047R (T47D cells) (Homo sapiens, UniProt P42336, H1047R)	C (C denotes ≤5-fold)
Cc1cc([C@H](C)Nc2ccccc2C(N)=O)c2nc(-c3cccc(C#N)c3)c(C)c(=O)n2c1 [Compound 1138]	PI3Kα H1047R (T47D cells) (Homo sapiens, UniProt P42336, H1047R)	C (C denotes ≤5-fold)
Cc1cc([C@H](C)Nc2ccccc2C(=O)O)c2cc(-c3ccnnc3)cc(=O)n2c1 [Compound 484]	PI3Kα H1047R (T47D cells) (Homo sapiens, UniProt P42336, H1047R)	C (C denotes ≤5-fold)
Cc1cc([C@@H](C)Nc2ccccc2-c2ccnnc2)c2nc(N3CCOCC3)cc(=O)n2c1 [Compound 495]	PI3Kα H1047R (T47D cells) (Homo sapiens, UniProt P42336, H1047R)	C (C denotes ≤5-fold)
Cc1cc(C(C)Nc2cc(F)ccc2C(=O)O)c2nc(-c3cccc(F)c3)c(C)c(=O)n2c1 (centres unmarked) [Compound 1197]	PI3Kα H1047R (T47D cells) (Homo sapiens, UniProt P42336, H1047R)	A (A denotes >20-fold)

// below: T47D pAKT S473 HTRF IC50 (H1047R): T47D (H1047R) selectivity over SKBR3 (WT) requested for another compound
For the compound shown here, Cc1cc([C@H](C)Nc2ccccc2)c2nc(-c3cnc4[nH]nc(-c5ccccc5)c4c3)cc(=O)n2c1 [Compound 266] , give the reported T47D pAKT S473 HTRF IC50 (H1047R): T47D (H1047R) selectivity over SKBR3 (WT).
C (C denotes ≤5-fold)
